System: Escherichia coli
Experiment: Antibacterial activity against Escherichia coli ATTC 25922 after 24 hrs by the disk diffusion method
Format: functional
Observed Property: inhibition zone (IZ) (mm)
Only the number, expressed in mm, is required.

CSc1ccc(Cc2nnc3sc(-c4cc(F)c(Cl)cc4Cl)nn23)cc1 :: 20

Ask: // returns reported inhibition zone (IZ) for input CSc1ccc(Cc2nnc3sc(-c4ccc([N+](=O)[O-])cc4Cl)nn23)cc1
Reply: 18

Ask: // returns reported inhibition zone (IZ) for input CSc1ccc(Cc2nnc3sc(-c4ccc(Br)cc4)nn23)cc1
Reply: 13

Ask: // returns reported inhibition zone (IZ) for input COc1ccc(-c2ccc(-c3nn4c(Cc5ccc(SC)cc5)nnc4s3)o2)c([N+](=O)[O-])c1
Reply: 13

Ask: // returns reported inhibition zone (IZ) for input CSc1ccc(Cc2nnc3sc(-c4ccc(-c5cc(Cl)c(Cl)cc5Cl)o4)nn23)cc1
Reply: 12

Ask: // returns reported inhibition zone (IZ) for input CSc1ccc(Cc2nnc3sc(-c4ccc(-c5ccccc5C(F)(F)F)o4)nn23)cc1
Reply: 18

---

Test system: Candida albicans
Assay: Antifungal activity against Candida albicans NICM 300 after 3 to days by serial plate dilution method
Format: functional
Observed Property: diameter of the inhibition zone (DIZ) (mm)
Only the number, expressed in mm, is required.

CSc1ccc(Cc2nnc3sc(-c4ccc(-c5ccc(Cl)cc5[N+](=O)[O-])o4)nn23)cc1 :: 18
CSc1ccc(Cc2nnc3sc(-c4ccc(-c5ccc(Br)cc5)o4)nn23)cc1 :: 18
CSc1ccc(Cc2nnc3sc(-c4ccc([N+](=O)[O-])cc4)nn23)cc1 :: 14
COc1ccc(-c2ccc(-c3nn4c(Cc5ccc(SC)cc5)nnc4s3)o2)c([N+](=O)[O-])c1 :: 17
CSc1ccc(Cc2nnc3sc(-c4ccc(-c5ccc(C)cc5)o4)nn23)cc1 :: 14
CSc1ccc(Cc2nnc3sc(-c4ccc(-c5cc(Cl)c(Cl)cc5Cl)o4)nn23)cc1 :: 12

Ask: // returns reported diameter of the inhibition zone (DIZ) for input CSc1ccc(Cc2nnc3sc(-c4cc(Cl)ccc4Cl)nn23)cc1
Reply: 15

Ask: // returns reported diameter of the inhibition zone (DIZ) for input CSc1ccc(Cc2nnc3sc(-c4ccc([N+](=O)[O-])cc4Cl)nn23)cc1
Reply: 20

Ask: // returns reported diameter of the inhibition zone (DIZ) for input CSc1ccc(Cc2nnc3sc(Cc4ccccc4)nn23)cc1
Reply: 17

Ask: // returns reported diameter of the inhibition zone (DIZ) for input CSc1ccc(Cc2nnc3sc(-c4ccc(F)cc4)nn23)cc1
Reply: 10

Ask: // returns reported diameter of the inhibition zone (DIZ) for input CSc1ccc(Cc2nnc3sc(-c4cc(F)c(Cl)cc4Cl)nn23)cc1
Reply: 20

---

Tested on: Pseudomonas aeruginosa
Experiment: Antibacterial activity against Pseudomonas aeruginosa ATTC 27853 after 24 hrs by the disk diffusion method
Type: functional
Observed Property: inhibition zone (IZ) (mm)
Only the number, expressed in mm, is required.

Solved cases (5 shown):
CSc1ccc(Cc2nnc3sc(-c4ccc(-c5cc(Cl)c(Cl)cc5Cl)o4)nn23)cc1 :: 10
CSc1ccc(Cc2nn3c(Cc4ccc(SC)cc4)nnc3s2)cc1 :: 18
CSc1ccc(Cc2nnc3sc(-c4cc(F)c(Cl)cc4Cl)nn23)cc1 :: 17
CSc1ccc(Cc2nnc3sc(-c4cc(Cl)ccc4Cl)nn23)cc1 :: 10
CSc1ccc(Cc2nnc3sc(-c4ccc(F)cc4)nn23)cc1 :: 17

Now let's try a different one.
Ask: // returns reported inhibition zone (IZ) for input COc1ccc(-c2ccc(-c3nn4c(Cc5ccc(SC)cc5)nnc4s3)o2)cc1
Reply: 17

---

The reader will find reported MIC values listed item by item below.
Test system: Escherichia coli
Assay: Antibacterial activity against Escherichia coli ATTC 25922 after 24 hrs by the disk diffusion method
Type: functional
Settings: Escherichia coli, ATTC 25922, 24 h
Only the number, expressed in µg/mL, is required.

CSc1ccc(Cc2nnc3sc(-c4ccc(-c5cc(Cl)c(Cl)cc5Cl)o4)nn23)cc1 :: 25
CSc1ccc(Cc2nnc3sc(-c4ccc(-c5cc(Cl)ccc5Cl)o4)nn23)cc1 :: 12.5
CSc1ccc(Cc2nnc3sc(-c4ccc(-c5ccccc5C(F)(F)F)o4)nn23)cc1 :: 12.5
CSc1ccc(Cc2nnc3sc(-c4ccc([N+](=O)[O-])cc4)nn23)cc1 :: 12.5
CSc1ccc(Cc2nnc3sc(-c4cc(Cl)ccc4Cl)nn23)cc1 :: 25

Ask: // returns reported MIC for input CSc1ccc(Cc2nnc3sc(-c4ccc(F)cc4)nn23)cc1
Reply: 12.5

Ask: // returns reported MIC for input CSc1ccc(Cc2nn3c(Cc4ccc(SC)cc4)nnc3s2)cc1
Reply: 12.5

Ask: // returns reported MIC for input COc1ccc(-c2ccc(-c3nn4c(Cc5ccc(SC)cc5)nnc4s3)o2)c([N+](=O)[O-])c1
Reply: 25

Ask: // returns reported MIC for input CSc1ccc(Cc2nnc3sc(Cc4ccccc4)nn23)cc1
Reply: 25

Ask: // returns reported MIC for input CSc1ccc(Cc2nnc3sc(-c4ccc(-c5ccc(Br)cc5)o4)nn23)cc1
Reply: 25

---

Tested on: Pseudomonas aeruginosa
Test: Antibacterial activity against Pseudomonas aeruginosa ATTC 27853 after 24 hrs by the disk diffusion method
Type: functional
Observed Property: inhibition zone (IZ) (mm)
Only the number, expressed in mm, is required.

Solved cases (5 shown):
CSc1ccc(Cc2nnc3sc(-c4ccc(Cl)c(Cl)c4Cl)nn23)cc1 :: 17
CSc1ccc(Cc2nnc3sc(-c4ccc(-c5ccccc5C(F)(F)F)o4)nn23)cc1 :: 18
CSc1ccc(Cc2nnc3sc(-c4ccc(-c5ccc([N+](=O)[O-])cc5)o4)nn23)cc1 :: 10
CSc1ccc(Cc2nnc3sc(-c4ccc(-c5ccc(Cl)cc5[N+](=O)[O-])o4)nn23)cc1 :: 18
CSc1ccc(Cc2nnc3sc(-c4ccc(-c5ccc(Cl)cc5)o4)nn23)cc1 :: 18

Ask: // returns reported inhibition zone (IZ) for input CSc1ccc(Cc2nnc3sc(Cc4ccccc4)nn23)cc1
Reply: 15

Ask: // returns reported inhibition zone (IZ) for input CSc1ccc(Cc2nnc3sc(-c4ccc(Br)cc4)nn23)cc1
Reply: 16

Ask: // returns reported inhibition zone (IZ) for input CSc1ccc(Cc2nnc3sc(-c4ccc(-c5ccc(C)cc5)o4)nn23)cc1
Reply: 18

Ask: // returns reported inhibition zone (IZ) for input CSc1ccc(Cc2nnc3sc(-c4ccc(-c5cc(Cl)ccc5Cl)o4)nn23)cc1
Reply: 18

---

The reader will find reported MIC values listed item by item below.
Tested on: Trichophyton mentagrophytes
Assay: Antifungal activity against Trichophyton mentagrophytes after 3 to days by serial plate dilution method
Format: functional
Conditions: Trichophyton mentagrophytes
Only the number, expressed in µg/mL, is required.

Solved cases (2 shown):
CSc1ccc(Cc2nn3c(Cc4ccc(SC)cc4)nnc3s2)cc1 :: 6
CSc1ccc(Cc2nnc3sc(-c4ccc(-c5ccccc5C(F)(F)F)o4)nn23)cc1 :: 6

Ask: // returns reported MIC for input COc1ccc(-c2ccc(-c3nn4c(Cc5ccc(SC)cc5)nnc4s3)o2)cc1
Reply: 6

Ask: // returns reported MIC for input CSc1ccc(Cc2nnc3sc(-c4cc(Cl)ccc4Cl)nn23)cc1
Reply: 25

Ask: // returns reported MIC for input CSc1ccc(Cc2nnc3sc(-c4ccc(-c5ccc(Cl)cc5[N+](=O)[O-])o4)nn23)cc1
Reply: 6

Ask: // returns reported MIC for input CSc1ccc(Cc2nnc3sc(-c4ccc(Cl)c(Cl)c4Cl)nn23)cc1
Reply: 25

Ask: // returns reported MIC for input CSc1ccc(Cc2nnc3sc(Cc4ccccc4)nn23)cc1
Reply: 25

Ask: // returns reported MIC for input Cc1cc(C2CCCCC2)n(O)c(=O)c1.NCCO
Reply: 6

Ask: // returns reported MIC for input COc1ccc(-c2ccc(-c3nn4c(Cc5ccc(SC)cc5)nnc4s3)o2)c([N+](=O)[O-])c1
Reply: 25

Ask: // returns reported MIC for input CSc1ccc(Cc2nnc3sc(-c4ccc(-c5ccc([N+](=O)[O-])cc5)o4)nn23)cc1
Reply: 25

Ask: // returns reported MIC for input CSc1ccc(Cc2nnc3sc(-c4ccc(-c5cc(Cl)ccc5Cl)o4)nn23)cc1
Reply: 12.5

Ask: // returns reported MIC for input CSc1ccc(Cc2nnc3sc(-c4ccc(Br)cc4)nn23)cc1
Reply: 25

Ask: // returns reported MIC for input CSc1ccc(Cc2nnc3sc(-c4ccc(O)cc4)nn23)cc1
Reply: 6

Ask: // returns reported MIC for input CSc1ccc(Cc2nnc3sc(-c4ccc([N+](=O)[O-])cc4Cl)nn23)cc1
Reply: 6

Ask: // returns reported MIC for input CSc1ccc(Cc2nnc3sc(-c4ccc(-c5cc(Cl)c(Cl)cc5Cl)o4)nn23)cc1
Reply: 25

Ask: // returns reported MIC for input CSc1ccc(Cc2nnc3sc(-c4ccc(-c5ccc(Cl)cc5)o4)nn23)cc1
Reply: 25
